Values from patent US5721267A

# assayed.target: β1 isozyme of PKC from rat brain (Rattus norvegicus, UniProt P68403)
# Construct: β1 isozyme of PKC from rat brain
# Sequence (P68403 whole entry): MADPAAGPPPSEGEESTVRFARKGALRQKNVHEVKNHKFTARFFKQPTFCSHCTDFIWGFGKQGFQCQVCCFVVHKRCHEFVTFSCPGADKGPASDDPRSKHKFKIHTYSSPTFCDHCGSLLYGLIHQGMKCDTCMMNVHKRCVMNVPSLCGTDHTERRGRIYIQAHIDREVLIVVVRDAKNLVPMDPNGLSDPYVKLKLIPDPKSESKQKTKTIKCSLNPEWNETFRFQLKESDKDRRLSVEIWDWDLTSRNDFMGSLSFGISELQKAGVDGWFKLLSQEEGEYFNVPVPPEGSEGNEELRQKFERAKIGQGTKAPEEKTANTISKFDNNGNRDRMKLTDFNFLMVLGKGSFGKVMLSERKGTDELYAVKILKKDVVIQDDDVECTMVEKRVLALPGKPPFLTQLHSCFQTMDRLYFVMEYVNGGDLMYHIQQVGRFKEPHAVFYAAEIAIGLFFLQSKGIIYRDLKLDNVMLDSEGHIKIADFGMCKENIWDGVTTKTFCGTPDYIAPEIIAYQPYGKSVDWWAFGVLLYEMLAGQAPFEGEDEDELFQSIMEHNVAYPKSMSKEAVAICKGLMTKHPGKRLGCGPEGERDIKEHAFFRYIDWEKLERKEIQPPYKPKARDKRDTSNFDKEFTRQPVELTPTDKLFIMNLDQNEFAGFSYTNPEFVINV
# run.description: Protein kinase C inhibition assay (32P incorporation from γ-32P ATP into synthetic peptide substrate)
# condition.details: activated by 5×10^-6 M diC8 and 1 μg/mL phosphatidylserine, 50 μM ATP, read-out: IC50 (concentration necessary to achieve 50% inhibition of PKC)
metric.name: IC50 (nM)
Give your result in nM as a bare value.

For reference, reported IC50 for `CNCCCn1c2ccccc2c2c3c(c(-c4ccsc4)cc21)C(=O)NC3=O` stands at 30
